System: PhoPR regulon
assay remarks: microbe, parasite or virus in culture
Type: cell-based
measurement context: Mycobacterium tuberculosis, 144 h, pH 5.7, read-out: EC50 of inhibition of CDC1551(aprA′::GFP) reporter fluorescence

{"columns": ["molecule", "EC50 / µM"],
 "data": [
  ["CCOc1ccc2nc(S(N)(=O)=O)sc2c1 [ETZ, 6-ethoxy-1,3-benzothiazole-2-sulfonamide]", 5.6]
]}

Values compiled from patent US10653679B2.
